tested on: Escherichia coli TOP10; assay: shrunken log2 fold change of peptide-encoding DNA abundance (4.5 h post-induction vs induction); higher = less antimicrobial activity (less host growth inhibition); settings: time post-induction: 4.5 h; library: site-saturation at positions 5, 18, 19, 20
What shrunken log2 fold change was measured for each of the following?
Answers are plain numbers.

Known shrunken log2 fold change results, listed for orientation:
Reported shrunken log2 fold change (Escherichia coli TOP10) for entry RRIRCRPPRLPRPRPRPWISPRP is -0.085

Reported shrunken log2 fold change (Escherichia coli TOP10) for entry RRIRKRPPRLPRPRPRPDLIPRP is -0.275

Reported shrunken log2 fold change (Escherichia coli TOP10) for entry RRIRKRPPRLPRPRPRPILDPRP is 0.15

Report shrunken log2 fold change for each item below.
1. RRIRYRPPRLPRPRPRPQMMPRP
2. RRIRDRPPRLPRPRPRPRCLPRP
3. RRIRPRPPRLPRPRPRPGELPRP
4. RRIRPRPPRLPRPRPRPKCWPRP
5. RRIRGRPPRLPRPRPRPDLGPRP

Response line:
[-0.536, -0.0519, 0.192, 0.765, 0.688]

Report shrunken log2 fold change for each item below.
1. RRIRGRPPRLPRPRPRPWSAPRP
2. RRIRFRPPRLPRPRPRPRGFPRP
3. RRIRYRPPRLPRPRPRPISNPRP
4. RRIRDRPPRLPRPRPRPWGWPRP
5. RRIRKRPPRLPRPRPRPVCKPRP
6. RRIRFRPPRLPRPRPRPRSWPRP
7. RRIRRRPPRLPRPRPRPVQQPRP

Response line:
0.232
0.27
-0.191
0.226
0.0228
0.135
0.213

Report shrunken log2 fold change for each item below.
1. RRIRCRPPRLPRPRPRPLLFPRP
2. RRIRRRPPRLPRPRPRPYFRPRP
3. RRIRPRPPRLPRPRPRPKPWPRP
4. RRIRVRPPRLPRPRPRPDFCPRP
5. RRIRVRPPRLPRPRPRPKPKPRP
6. RRIRKRPPRLPRPRPRPKLGPRP
7. RRIRGRPPRLPRPRPRPDHTPRP
8. RRIRERPPRLPRPRPRPIQMPRP

Response line:
1: -0.277; 2: -0.203; 3: 0.227; 4: 0.183; 5: 0.312; 6: 0.0679; 7: 0.0269; 8: -0.14

Report shrunken log2 fold change for each item below.
1. RRIRARPPRLPRPRPRPKVGPRP
2. RRIRIRPPRLPRPRPRPCEHPRP
3. RRIRGRPPRLPRPRPRPEFLPRP
4. RRIRCRPPRLPRPRPRPSSQPRP
5. RRIRHRPPRLPRPRPRPFYHPRP
6. RRIRVRPPRLPRPRPRPNMLPRP
7. RRIRSRPPRLPRPRPRPPLSPRP
8. RRIRERPPRLPRPRPRPMMQPRP

Response line:
1. 0.284
2. -0.00165
3. 1.01
4. -0.377
5. -0.126
6. -0.432
7. 0.125
8. -0.0983

====

test system: Escherichia coli TOP10; experiment: shrunken log2 fold change of peptide-encoding DNA abundance (4.5 h post-induction vs induction); higher = less antimicrobial activity (less host growth inhibition); details: time post-induction: 4.5 h; library: site-saturation at positions 5, 18, 19, 20
Observed property: shrunken log2 fold change
Numbers only.

GET /value?item= RRIRVRPPRLPRPRPRPLDYPRP &field=shrunken log2 fold change returns -0.244

GET /value?item= RRIRIRPPRLPRPRPRPCFVPRP &field=shrunken log2 fold change returns -0.422

GET /value?item= RRIRRRPPRLPRPRPRPYWRPRP &field=shrunken log2 fold change returns 0.0363

GET /value?item= RRIRTRPPRLPRPRPRPIQMPRP &field=shrunken log2 fold change returns -0.286

GET /value?item= RRIRWRPPRLPRPRPRPGYYPRP &field=shrunken log2 fold change returns -0.125

GET /value?item= RRIRHRPPRLPRPRPRPIRVPRP &field=shrunken log2 fold change returns -0.361

GET /value?item= RRIRHRPPRLPRPRPRPMTQPRP &field=shrunken log2 fold change returns -0.24

GET /value?item= RRIRQRPPRLPRPRPRPLSTPRP &field=shrunken log2 fold change returns 0.175

Report shrunken log2 fold change for each item below.
1. RRIRVRPPRLPRPRPRPSRWPRP
2. RRIRYRPPRLPRPRPRPAMAPRP
3. RRIRDRPPRLPRPRPRPLTYPRP
4. RRIRMRPPRLPRPRPRPSQLPRP
5. RRIRLRPPRLPRPRPRPYCRPRP
6. RRIRHRPPRLPRPRPRPVMEPRP
7. RRIRARPPRLPRPRPRPQCYPRP
8. RRIRARPPRLPRPRPRPENRPRP

Response line:
1. 0.278
2. 0.0187
3. -0.339
4. -0.0454
5. -0.256
6. 0.105
7. -0.0761
8. 0.0495

Report shrunken log2 fold change for each item below.
1. RRIRCRPPRLPRPRPRPIYNPRP
2. RRIRIRPPRLPRPRPRPDNVPRP
3. RRIRIRPPRLPRPRPRPLNCPRP
4. RRIRHRPPRLPRPRPRPLGLPRP
5. RRIRRRPPRLPRPRPRPALFPRP

Response line:
1: -0.761; 2: 0.0156; 3: -0.0654; 4: 0.393; 5: 0.128

Report shrunken log2 fold change for each item below.
1. RRIRGRPPRLPRPRPRPSVFPRP
2. RRIRDRPPRLPRPRPRPLPRPRP
3. RRIRHRPPRLPRPRPRPYAPPRP
4. RRIRSRPPRLPRPRPRPPDQPRP
5. RRIRQRPPRLPRPRPRPVVYPRP
6. RRIRARPPRLPRPRPRPTRTPRP
7. RRIRVRPPRLPRPRPRPLQTPRP

Response line:
[0.465, 0.391, -0.737, 0.674, 0.12, 0.653, 0.158]

Report shrunken log2 fold change for each item below.
1. RRIRARPPRLPRPRPRPWFKPRP
2. RRIRIRPPRLPRPRPRPDQIPRP
3. RRIRNRPPRLPRPRPRPQKTPRP
4. RRIRWRPPRLPRPRPRPSGSPRP

Response line:
1. -0.0366
2. -0.0795
3. -0.0033
4. 0.316

====

test system: Escherichia coli TOP10; assay: shrunken log2 fold change of peptide-encoding DNA abundance (4.5 h post-induction vs induction); higher = less antimicrobial activity (less host growth inhibition); settings: time post-induction: 4.5 h; library: site-saturation at positions 5, 18, 19, 20
If the reported shrunken log2 fold change equals or exceeds 0.02, assign satisfied. If not, assign not satisfied.

Answered examples (2):
Prompt line: Would you say RRIRCRPPRLPRPRPRPESHPRP shows shrunken log2 fold change at minimum 0.02?
Response line: not satisfied

Prompt line: Would you say RRIRHRPPRLPRPRPRPSELPRP shows shrunken log2 fold change at minimum 0.02?
Response line: not satisfied

***
Prompt line: Would you say RRIRPRPPRLPRPRPRPSFGPRP shows shrunken log2 fold change at minimum 0.02?
Response line: not satisfied

Prompt line: Would you say RRIRRRPPRLPRPRPRPKRYPRP shows shrunken log2 fold change at minimum 0.02?
Response line: not satisfied

====

system: Escherichia coli TOP10; assay: shrunken log2 fold change of peptide-encoding DNA abundance (4.5 h post-induction vs induction); higher = less antimicrobial activity (less host growth inhibition); conditions: time post-induction: 4.5 h; library: site-saturation at positions 5, 18, 19, 20
If the reported shrunken log2 fold change equals or exceeds 0.006, assign label 1. If not, assign label 0.

Prompt line: Would you say RRIRRRPPRLPRPRPRPIEQPRP shows shrunken log2 fold change at minimum 0.006?
Response line: label 1

Prompt line: Would you say RRIRTRPPRLPRPRPRPMPKPRP shows shrunken log2 fold change at minimum 0.006?
Response line: label 1

Prompt line: Would you say RRIRERPPRLPRPRPRPLLVPRP shows shrunken log2 fold change at minimum 0.006?
Response line: label 0

Prompt line: Would you say RRIRYRPPRLPRPRPRPETHPRP shows shrunken log2 fold change at minimum 0.006?
Response line: label 0

Prompt line: Would you say RRIRTRPPRLPRPRPRPGYSPRP shows shrunken log2 fold change at minimum 0.006?
Response line: label 1

***
Prompt line: Would you say RRIRVRPPRLPRPRPRPFEKPRP shows shrunken log2 fold change at minimum 0.006?
Response line: label 0

Prompt line: Would you say RRIRRRPPRLPRPRPRPGLMPRP shows shrunken log2 fold change at minimum 0.006?
Response line: label 1

====

What shrunken log2 fold change was measured for each of the following?
tested on: Escherichia coli TOP10; assay: shrunken log2 fold change of peptide-encoding DNA abundance (4.5 h post-induction vs induction); higher = less antimicrobial activity (less host growth inhibition); conditions: time post-induction: 4.5 h; library: site-saturation at positions 5, 18, 19, 20;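 further: peptides expressed intracellularly from a pBAD plasmid library in pooled LB shake-flask culture, induced with 0.3% L-arabinose, DNA abundance read by NGS, three biological replicates, DESeq2 with apeglm shrinkage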
Give bare numbers.

Known shrunken log2 fold change results, listed for orientation:
Reported shrunken log2 fold change (Escherichia coli TOP10) for entry RRIRERPPRLPRPRPRPSYWPRP is -0.266

Reported shrunken log2 fold change (Escherichia coli TOP10) for entry RRIRERPPRLPRPRPRPYCPPRP is -1.59

Reported shrunken log2 fold change (Escherichia coli TOP10) for entry RRIRMRPPRLPRPRPRPMVWPRP is 1.09

Reported shrunken log2 fold change (Escherichia coli TOP10) for entry RRIRQRPPRLPRPRPRPREGPRP is 0.151

Reported shrunken log2 fold change (Escherichia coli TOP10) for entry RRIRFRPPRLPRPRPRPQEWPRP is -0.149

Reported shrunken log2 fold change (Escherichia coli TOP10) for entry RRIRSRPPRLPRPRPRPKQSPRP is 0.328

Reported shrunken log2 fold change (Escherichia coli TOP10) for entry RRIRWRPPRLPRPRPRPAWSPRP is 0.265

Reported shrunken log2 fold change (Escherichia coli TOP10) for entry RRIRQRPPRLPRPRPRPGNYPRP is -0.222

Report shrunken log2 fold change for each item below.
1. RRIRKRPPRLPRPRPRPGDYPRP
2. RRIRLRPPRLPRPRPRPEWQPRP
3. RRIRRRPPRLPRPRPRPGDHPRP
4. RRIRVRPPRLPRPRPRPMVAPRP

Response line:
[0.559, -0.0018, 0.0619, -0.148]

Report shrunken log2 fold change for each item below.
1. RRIRFRPPRLPRPRPRPTDPPRP
2. RRIRNRPPRLPRPRPRPTPKPRP
3. RRIRQRPPRLPRPRPRPYIIPRP

Response line:
1. -0.0408
2. 0.222
3. -0.332

Report shrunken log2 fold change for each item below.
1. RRIRMRPPRLPRPRPRPGCRPRP
2. RRIRHRPPRLPRPRPRPINVPRP

Response line:
[1.22, -1.14]

Report shrunken log2 fold change for each item below.
1. RRIRHRPPRLPRPRPRPWARPRP
2. RRIRMRPPRLPRPRPRPVYIPRP
3. RRIRYRPPRLPRPRPRPFQNPRP
4. RRIRKRPPRLPRPRPRPPQKPRP
5. RRIRVRPPRLPRPRPRPGPVPRP

Response line:
[-0.00568, -0.0842, -0.0769, 0.682, 0.287]

Report shrunken log2 fold change for each item below.
1. RRIRQRPPRLPRPRPRPGSQPRP
2. RRIRFRPPRLPRPRPRPHGCPRP
3. RRIRNRPPRLPRPRPRPMSLPRP
4. RRIRQRPPRLPRPRPRPQKNPRP
5. RRIRTRPPRLPRPRPRPRHEPRP
6. RRIRCRPPRLPRPRPRPVQVPRP

Response line:
1: -0.161; 2: -0.064; 3: -0.0381; 4: -0.297; 5: -0.13; 6: -0.164

Report shrunken log2 fold change for each item below.
1. RRIRKRPPRLPRPRPRPSGGPRP
2. RRIRIRPPRLPRPRPRPHRRPRP
3. RRIRYRPPRLPRPRPRPACGPRP
4. RRIRARPPRLPRPRPRPHWFPRP

Response line:
1. 0.255
2. -0.056
3. -0.145
4. 0.0804

Origin of measurements: the supplement of paper PMC9112550
